Target: Oxytocin receptor (Homo sapiens)
Sequence (P30559 whole entry): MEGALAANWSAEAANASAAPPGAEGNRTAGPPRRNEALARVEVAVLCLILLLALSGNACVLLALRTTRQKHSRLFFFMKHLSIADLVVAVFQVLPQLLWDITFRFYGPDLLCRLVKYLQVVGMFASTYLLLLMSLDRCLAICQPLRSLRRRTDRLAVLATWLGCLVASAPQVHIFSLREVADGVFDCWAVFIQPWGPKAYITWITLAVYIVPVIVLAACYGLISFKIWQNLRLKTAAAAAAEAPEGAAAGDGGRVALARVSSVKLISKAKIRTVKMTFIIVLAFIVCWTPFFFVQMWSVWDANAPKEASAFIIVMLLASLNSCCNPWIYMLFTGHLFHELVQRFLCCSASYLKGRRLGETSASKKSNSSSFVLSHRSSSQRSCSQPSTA
Assay: Displacement of [3H]AVP from human oxytocin receptor expressed in CHO cells
Type: cell-based
Details: read-out: Ki
pKi: −log10 of the molar value.
Classification field: fulfilled = pKi at or over 7; not fulfilled = pKi under 7.

smiles.str: Cc1ccn(-c2ccc(C(=O)N3Cc4cnn(C)c4Nc4ccccc43)cc2C)n1
qualitative.label: fulfilled
--
smiles.str: Cc1cc(C(=O)N2Cc3cnn(C)c3Nc3ccccc32)ccc1CNC(=O)N(C)C
qualitative.label: not fulfilled
--
smiles.str: Cc1cc(C(=O)N2CCC(N3C(=O)OCc4ccccc43)CC2)ccc1CNC(=O)N1CCC[C@H]1C(=S)N1CCCN(C)CC1
qualitative.label: not fulfilled
--
smiles.str: Cc1cc(C(=O)N2Cc3cccn3Cc3ccccc32)ccc1CNC(=O)N1CCC[C@H]1C(=S)N1CCCN(C)CC1
qualitative.label: not fulfilled
--
smiles.str: Cc1ccn(-c2ccc(C(=O)N3Cc4cccn4Cc4ccccc43)c(Cl)c2)n1
qualitative.label: not fulfilled
--
smiles.str: Cc1ccn(-c2ccc(C(=O)N3Cc4cnn(C)c4Nc4ccccc43)c(Cl)c2)n1
qualitative.label: fulfilled

Asked: Hello, I need to know if CC(=O)NCc1ccc(C(=O)N2Cc3cnn(C)c3Nc3ccccc32)cc1C has measured pKi not below 7. Thanks!
Given back: not fulfilled

Asked: Hello, I need to know if Cc1cc(C(=O)N2Cc3cnn(C)c3Nc3ccccc32)ccc1CNC(=O)N1CCCC1 has measured pKi not below 7. Thanks!
Given back: not fulfilled

* * *

Molecular target: Vasopressin V2 receptor (Homo sapiens)
Sequence (P30518 whole entry): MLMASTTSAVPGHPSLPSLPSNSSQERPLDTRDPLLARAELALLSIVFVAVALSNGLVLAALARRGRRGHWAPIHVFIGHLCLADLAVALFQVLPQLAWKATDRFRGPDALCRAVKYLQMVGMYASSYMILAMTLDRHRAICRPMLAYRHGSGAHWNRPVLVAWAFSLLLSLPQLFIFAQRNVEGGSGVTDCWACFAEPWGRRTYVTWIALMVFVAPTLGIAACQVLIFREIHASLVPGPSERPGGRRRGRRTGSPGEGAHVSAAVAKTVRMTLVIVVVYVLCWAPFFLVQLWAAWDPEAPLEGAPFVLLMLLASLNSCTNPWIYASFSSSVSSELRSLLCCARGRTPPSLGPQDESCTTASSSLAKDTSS
Test: Activity at human vasopressin V2 receptor expressed in CHO cells assessed as inhibition of agonist-induced cAMP accumulation
Format: functional, cell-based
Each entry below lists one item and its recorded Kinact value.

smiles.str: O=C(Nc1ccc(C(=O)N2CCCCc3ccccc32)cc1)c1ccccc1-c1ccccc1
Kinact: 0.096 nM

The molecule listed as Cc1ccn(-c2ccc(C(=O)N3Cc4cnn(C)c4Nc4ccccc43)cc2C)n1 has a reported Kinact of 253 nM

The molecule listed as Cc1cc(C(=O)N2Cc3cnn(C)c3Nc3ccccc32)ccc1NC(=O)c1ccccc1-c1ccccc1 has a reported Kinact of 1.1 nM

* * *

Target: Vasopressin V1a receptor (Homo sapiens)
Sequence (P37288 whole entry, looked up): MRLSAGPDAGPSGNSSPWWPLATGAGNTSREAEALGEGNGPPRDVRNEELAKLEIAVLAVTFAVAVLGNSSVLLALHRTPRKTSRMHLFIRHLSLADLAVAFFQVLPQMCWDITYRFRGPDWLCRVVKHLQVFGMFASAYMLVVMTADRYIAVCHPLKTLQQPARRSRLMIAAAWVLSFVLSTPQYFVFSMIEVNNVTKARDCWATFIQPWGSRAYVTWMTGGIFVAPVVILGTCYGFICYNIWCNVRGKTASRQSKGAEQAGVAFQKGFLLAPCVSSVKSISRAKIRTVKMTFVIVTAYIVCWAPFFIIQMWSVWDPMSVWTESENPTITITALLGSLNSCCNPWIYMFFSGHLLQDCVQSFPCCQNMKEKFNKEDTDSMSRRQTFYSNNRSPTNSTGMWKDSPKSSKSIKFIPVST
Test: Activity at human vasopressin V1a receptor expressed in CHO cells assessed as inositol phosphate accumulation at 1 uM
Assay type: functional, cell-based
The source made the active and inactive calls. The rule behind the calls is not given here.
measurement.label: Activity

Example entries begin here.
smiles.str: Cc1ccn(-c2ccc(C(=O)N3Cc4cnn(C)c4Nc4ccccc43)c(Cl)c2)n1
target.entity: Vasopressin V1a receptor (Homo sapiens)
Activity: inactive
--
smiles.str: CC(=O)NCc1ccc(C(=O)N2Cc3cnn(C)c3Nc3ccccc32)cc1C
target.entity: Vasopressin V1a receptor (Homo sapiens)
Activity: inactive
--
smiles.str: Cc1cc(C(=O)N2Cc3cnn(C)c3Nc3ccccc32)ccc1NC(=O)c1ccccc1-c1ccccc1
target.entity: Vasopressin V1a receptor (Homo sapiens)
Activity: inactive
--
smiles.str: COc1cc(OC2CCN(C(C)=O)CC2)ccc1C(=O)N1CCC(N2C(=O)OCc3ccccc32)CC1
target.entity: Vasopressin V1a receptor (Homo sapiens)
Activity: inactive
--
smiles.str: Cc1cc(C(=O)N2Cc3cccn3Cc3ccccc32)ccc1CNC(=O)N1CCC[C@H]1C(=S)N1CCCN(C)CC1
target.entity: Vasopressin V1a receptor (Homo sapiens)
Activity: inactive
--
smiles.str: Cc1ccn(-c2ccc(C(=O)N3Cc4cccn4Cc4ccccc43)c(Cl)c2)n1
target.entity: Vasopressin V1a receptor (Homo sapiens)
Activity: inactive
--
smiles.str: Cc1cc(C(=O)N2Cc3cnn(C)c3Nc3ccccc32)ccc1CNC(=O)N1CCCC1
target.entity: Vasopressin V1a receptor (Homo sapiens)
Activity: inactive
--
smiles.str: Cc1cc(C(=O)N2Cc3cnn(C)c3Nc3ccccc32)ccc1CNC(=O)N(C)C
target.entity: Vasopressin V1a receptor (Homo sapiens)
Activity: inactive

The compound listed as Cc1cc(C(=O)N2CCC(N3C(=O)OCc4ccccc43)CC2)ccc1CNC(=O)N1CCC[C@H]1C(=S)N1CCCN(C)CC1 has a reported Activity of inactive

The compound listed as O=C(Nc1ccc(C(=O)N2CCCCc3ccccc32)cc1)c1ccccc1-c1ccccc1 has a reported Activity of inactive

The compound listed as Cc1ccn(-c2ccc(C(=O)N3Cc4cnn(C)c4Nc4ccccc43)cc2C)n1 has a reported Activity of inactive
